- experimental_system: T1, CGRP1 receptor (CRLR/RAMP1 complex) of human neuroblastoma SK-N-MC cells (human, UniProt Q16602 23-461; O60894 27-148)
- T1 construct: whole, on cells
- T1 sequence (Q16602 23-461, chain 1 of 2): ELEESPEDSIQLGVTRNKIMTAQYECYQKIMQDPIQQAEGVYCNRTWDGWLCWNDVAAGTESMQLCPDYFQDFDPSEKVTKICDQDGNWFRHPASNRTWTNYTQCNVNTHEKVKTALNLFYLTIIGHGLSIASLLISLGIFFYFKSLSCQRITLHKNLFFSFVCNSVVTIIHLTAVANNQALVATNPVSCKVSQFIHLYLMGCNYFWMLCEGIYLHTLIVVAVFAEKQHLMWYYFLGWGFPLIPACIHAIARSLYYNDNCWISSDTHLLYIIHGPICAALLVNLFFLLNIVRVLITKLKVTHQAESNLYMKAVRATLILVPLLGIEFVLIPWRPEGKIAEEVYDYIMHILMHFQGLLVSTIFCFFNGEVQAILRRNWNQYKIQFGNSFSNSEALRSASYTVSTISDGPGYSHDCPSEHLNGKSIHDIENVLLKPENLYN
- T1 sequence (O60894 27-148, chain 2 of 2): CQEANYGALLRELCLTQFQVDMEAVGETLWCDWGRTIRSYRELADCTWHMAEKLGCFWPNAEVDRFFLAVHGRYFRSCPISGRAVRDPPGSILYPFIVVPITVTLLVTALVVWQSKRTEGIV
- test_summary: 125I-hαCGRP competition, SK-N-MC membranes
observation_type: Ki (nM)
Write the number in nM without appending the unit.

See these solved cases before continuing.
Ac-WVTHRLAGLLSRSGGVVRCNFVPTDVGPFAF-NH2 (not fully specified (residue 19); printed as Ac-WVTHRLAGLLSRSGGVVRC^(20 kDa PEG)NFVPTDVGPFAF-amide) [SEQ ID NO 681]; 0.6
Ac-WVTHRLAGLLSRSGGVVCNNFVPTDVGPFAF-NH2 (not fully specified (residue 18); printed as Ac-WVTHRLAGLLSRSGGVVC^(20 kDa PEG)NNFVPTDVGPFAF-amide) [SEQ ID NO 683]; 1.58

Ask: Hello, please tell me recorded Ki for this one: Ac-WVTHRLAGLLSRSGGVVRCNFVPTDVGPFAF-NH2 [SEQ ID NO 680]
Result: 0.58
